biological target: Aldo-keto reductase family 1 member B1 (Rattus norvegicus); assay: Inhibition of Rattus norvegicus albino (rat) kidney aldose reductase using DL-glyceraldehyde as substrate assessed as decrease in NADPH concentRattus norvegicus (rat) ion at 10^-4 M after 5 min by spectrophotometrically
Recorded inhibition values for a group of molecules are listed next.
Give the quantity in %, number only.

Below: 3 molecules and their reported inhibition.
- MOL: "CCOC(=O)Cn1nc(-n2nc(C)c(Cl)c2C)ccc1=O"
  MEASUREMENT NAME: "inhibition"
  RESULT UNITS: "%"
  RECORDED MEASUREMENT: 0
- MOL: "O=C(O)CCc1cc(-c2ccc(Cl)cc2)n(-c2ccc(Cl)nn2)n1"
  MEASUREMENT NAME: "inhibition"
  RESULT UNITS: "%"
  RECORDED MEASUREMENT: 0.76
- MOL: "Cc1cc(-c2ccccc2)nn1-c1ccc(=O)n(CC(=O)Nc2ccc(Cl)cc2)n1"
  MEASUREMENT NAME: "inhibition"
  RESULT UNITS: "%"
  RECORDED MEASUREMENT: 0

Asked: What inhibition appears in the records for this molecule with Aldo-keto reductase family 1 member B1 (Rattus norvegicus)? "CCOC(=O)Cn1nc(-n2nc(C)cc2C)ccc1=O"
Given back: 0

Attribution: ChEMBL document CHEMBL3044976
